target: Protein disulfide-isomerase A6 (Homo sapiens); assay: inhibitors of ERp5-driven insulin aggregation, primary screen, biochemical, turbidity, absorbance 650 nm, single point (AID 651711); conditions: 90 min, at 9.99 µM, active compounds read high
About 180 (0.051%) of roughly 350,000 compounds were called active. The sample holds actives, similar compounds and a random draw of the others, so the mix is not that of the screen.
Measured inhibition values are reported for all entries that follow.
Output spec: scalar in %, unitless text.

• COc1ccc(S(=O)(=O)N(C)C[C@H]2Oc3ccc(N(C)C)cc3C(=O)N([C@@H](C)CO)C[C@@H]2C)cc1 = -9.71
• CCC(=O)N(C)C[C@@H]1Oc2cc(C#C[C@H](C)O)ccc2S(=O)(=O)N([C@@H](C)CO)C[C@H]1C = -0.347
• CN(C)CC(=O)Nc1ccc2c(c1)[C@H]1C[C@H](CC(=O)NCc3ccccn3)O[C@@H](CO)[C@H]1O2 = -3.52
• CC(C)NC(=O)N(C)C[C@H]1OCCCC[C@@H](C)Oc2ccc(NS(C)(=O)=O)cc2C(=O)N([C@H](C)CO)C[C@H]1C = -1.99
• CC(C)NC(=O)N(C)C[C@H]1Oc2c(NC(=O)Nc3ccc(F)cc3)cccc2C(=O)N([C@@H](C)CO)C[C@@H]1C = 0.87

Consider COc1ccc2c3c(n(C)c2c1)[C@@H](CO)N(CC1CC1)CC31CCN(C(=O)c2ccc3c(c2)OCO3)CC1 . Its measured inhibition is -0.398

Consider Cc1noc(C)c1S(=O)(=O)Nc1ccc2c(c1)C(=O)N([C@H](C)CO)C[C@H](C)[C@H](CN(C)S(C)(=O)=O)OCCCC[C@H](C)O2 . Its measured inhibition is -0.161

###

target: Protein disulfide-isomerase A6 (Homo sapiens); assay: inhibitors of ERp5-driven insulin aggregation, primary screen, biochemical, turbidity, absorbance 650 nm, single point (AID 651711); settings: 90 min, at 9.99 µM, active compounds read high
Screen size: about 350,000 compounds; about 180 (0.051%) were called active. The list comes from a sample in which actives are over-represented; it also holds close analogues and randomly drawn compounds.
Measured inhibition values are reported for all entries that follow.

- C[C@@H]1CN([C@@H](C)CO)C(=O)c2cc(NC(=O)CCCN(C)C)ccc2O[C@@H](C)CCCCO[C@@H]1CN(C)S(=O)(=O)c1ccc(Cl)cc1: 0.282% (inactive)

Consider C[C@@H]1CN([C@H](C)CO)S(=O)(=O)c2ccc(-c3ccncc3)cc2O[C@H]1CN(C)S(=O)(=O)c1ccccc1F . Its measured inhibition is -3.02% (inactive)

Consider COC(=O)[C@]12C[C@H](CC(=O)NCc3ccccc3)C(=O)N(CCC3=CCCCC3)C1=C[C@H](C(C)(C)C)O[C@@H]2C . Its measured inhibition is 15.6% (inactive)

Consider O=C(CN1CCOCC1)N[C@@H]1CC[C@@H](CCNC(=O)C2CCCCC2)O[C@@H]1CO . Its measured inhibition is 0.632% (inactive)

###

target: Protein disulfide-isomerase A6 (Homo sapiens) (UniProt Q15084); test: inhibitors of ERp5-driven insulin aggregation, primary screen, biochemical, turbidity, absorbance 650 nm, single point (AID 651711); conditions: 90 min, at 9.99 µM, active compounds read high
Sequence (Q15084 whole entry, looked up): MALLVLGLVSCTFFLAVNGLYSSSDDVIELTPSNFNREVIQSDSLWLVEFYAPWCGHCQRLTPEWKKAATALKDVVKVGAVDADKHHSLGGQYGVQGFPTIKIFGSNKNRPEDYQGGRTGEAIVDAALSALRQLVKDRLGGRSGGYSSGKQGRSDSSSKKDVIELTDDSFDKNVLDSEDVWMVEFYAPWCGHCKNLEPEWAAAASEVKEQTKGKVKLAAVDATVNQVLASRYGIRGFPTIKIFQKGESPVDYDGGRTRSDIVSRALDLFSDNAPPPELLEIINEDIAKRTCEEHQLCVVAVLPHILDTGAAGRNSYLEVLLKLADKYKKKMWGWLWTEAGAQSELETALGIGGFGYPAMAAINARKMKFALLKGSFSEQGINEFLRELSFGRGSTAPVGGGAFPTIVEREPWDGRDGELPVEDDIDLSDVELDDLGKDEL
Screen size: about 350,000 compounds; about 180 (0.051%) were called active. The full list was thinned out, with actives kept by preference.
Measured inhibition values are reported for all entries that follow.
Output spec: scalar in %, unitless text.

As a guide, the following entries are already answered.
• CO[C@H]1CN(C)C(=O)c2ccc(NC(=O)C3CCC3)cc2OC[C@@H](C)N(Cc2ccccn2)C[C@H]1C = -2.1
• C[C@H](CO)N1C[C@H](C)[C@@H](CN(C)C(=O)Cc2ccncc2)Oc2ncc(C3=CCCCC3)cc2C1=O = 4.38
• Cc1ccc(-c2ccccc2[C@H]2[C@@H](C#N)N(c3ncc(-c4ccccc4)s3)[C@@H]2CO)cc1 = -0.798

Consider CCCNC(=O)N(C)C[C@H]1Oc2cc(C#C[C@@H](C)O)ccc2S(=O)(=O)N([C@H](C)CO)C[C@H]1C . Its measured inhibition is -12.1

Consider CO[C@H]1CN(C)C(=O)c2cc(NS(=O)(=O)c3ccccc3)ccc2OC[C@@H](C)N(Cc2nccs2)C[C@@H]1C . Its measured inhibition is 1

Consider COc1ccc2c3c(n(C)c2c1)[C@@H](CO)N(C(=O)CN1CCOCC1)CC31CN(C(=O)CC2CC2)C1 . Its measured inhibition is -0.576

Consider C[C@H]1CN([C@@H](C)CO)S(=O)(=O)c2ccc(C#CCN(C)C)cc2O[C@@H]1CN(C)Cc1ccc(F)cc1 . Its measured inhibition is 3.33

Consider CCNC(=O)[C@H]1[C@H](CO)[C@H]2Cn3c(ccc(/C=C/c4ccccc4)c3=O)[C@@H]1N2C(=O)C1CCC1 . Its measured inhibition is -5.59

Consider COCC(=O)N[C@@H]1C[C@@H]2O[C@@H](CO)CC[C@@H]2O[C@@H]1CCc1ccc(-c2ccccc2)cc1 . Its measured inhibition is -0.551

Consider C[C@@H]1CCCCO[C@H](CN(C)Cc2ccc(Cl)c(Cl)c2)[C@@H](C)CN([C@H](C)CO)C(=O)c2cc(NS(=O)(=O)c3cn(C)cn3)ccc2O1 . Its measured inhibition is 1.36

Consider CCNC(=O)C[C@@H]1CC[C@@H]2[C@@H](COc3ccc(NC(C)=O)cc3C(=O)N2C)O1 . Its measured inhibition is -7.17

###

target: Protein disulfide-isomerase A6 (Homo sapiens) (UniProt Q15084); experiment: inhibitors of ERp5-driven insulin aggregation, primary screen, biochemical, turbidity, absorbance 650 nm, single point (AID 651711); conditions: 90 min, at 9.99 µM, active compounds read high
In all, about 350,000 compounds went through this assay and about 180 (0.051%) were called active. This excerpt belongs to a sample that is enriched for actives.
Measured inhibition values are reported for all entries that follow.
Output spec: scalar in %, unitless text.

As a guide, the following entries are already answered.
* COc1ccc(S(=O)(=O)N(C)C[C@H]2Oc3ccc(NC(=O)C4CC4)cc3CC(=O)N([C@@H](C)CO)C[C@@H]2C)cc1 | 2.88
* C[C@@H]1CCCCO[C@@H](CN(C)Cc2ccccc2)[C@H](C)CN([C@H](C)CO)C(=O)c2cc(NC(=O)Nc3cccc4ccccc34)ccc2O1 | 0.587

Consider COC(=O)CNC(=O)c1ccccc1[N+](=O)[O-] . Its measured inhibition is -6.79

Consider C[C@H](NC(=O)[C@H]1N[C@H]2c3ccc(-c4ccc(C(=O)N(C)C)cc4)c(=O)n3C[C@H]2[C@@H]1CO)c1ccccc1 . Its measured inhibition is -1.53

Consider CCCN1C[C@H](C)[C@@H](OC)CN(C)C(=O)c2cc(NS(=O)(=O)CC)ccc2OC[C@H]1C . Its measured inhibition is -4.64

Consider C[C@@H]1CN([C@@H](C)CO)C(=O)Cc2cc(NC(=O)C3CCCCC3)ccc2O[C@@H]1CN(C)Cc1ccc(C(=O)Nc2ccccc2N)cc1 . Its measured inhibition is -3.91

###

target: Protein disulfide-isomerase A6 (Homo sapiens) (UniProt Q15084); assay: inhibitors of ERp5-driven insulin aggregation, primary screen, biochemical, turbidity, absorbance 650 nm, single point (AID 651711); details: 90 min, at 9.99 µM, active compounds read high
Among all 350,000 compounds or so, about 180 (0.051%) were called active. What follows is part of a selection rich in actives, with near analogues and random picks from the rest.
Measured inhibition values are reported for all entries that follow.
Output spec: scalar in %, unitless text.

As a guide, the following entries are already answered.
- O=C1[C@@H](c2ccccc2)[C@@H](c2ccccc2)N1c1ccccc1: 3.47
- C/C=C/c1ccccc1[C@H]1[C@@H](C#N)N(C(C)=O)[C@@H]1CO: 0.399
- C[C@@H]1CN([C@@H](C)CO)S(=O)(=O)c2ccc(C#CC(C)(C)O)cc2O[C@H]1CN(C)C(=O)CN(C)C: -0.244
- O=C(C[C@@H]1C[C@H]2c3cc(NC(=O)NC4CCCC4)ccc3O[C@H]2[C@@H](CO)O1)NC1CCCCC1: 5.32
- C[C@H]1CN([C@@H](C)CO)C(=O)Cc2cc(NS(=O)(=O)c3cccs3)ccc2O[C@@H]1CN(C)Cc1ccc(Oc2ccccc2)cc1: 0.293

Consider COc1ccc2c3c(n(C)c2c1)[C@@H](CO)NCC31CCN(CC2CCCC2)CC1 . Its measured inhibition is 1.66

Consider Cc1[nH]c2ccccc2c1CC(=O)Nc1ccc(Nc2cccnc2)c(-c2cccc(Cl)c2)c1 . Its measured inhibition is -5.11

Consider Cn1cnc(S(=O)(=O)N2C[C@@H](O)COC[C@H]3O[C@@H](CC(=O)NCc4ccc(F)cc4)CC[C@@H]32)c1 . Its measured inhibition is -0.766

Consider COc1ccc2c3c(n(C)c2c1)[C@H](CO)N(Cc1ccc(F)cc1)CC31CCN(C)CC1 . Its measured inhibition is -1.69
